# target-or-test-system: ZmDRIK1-K217-P492 (Zea mays)
# Construct: kinase domain, K217-P492
# assay-info: biochemical
# stated-conditions: read-out: dTm B, sheet ZmDRIK1-K217-P492;; DSF, Boltzmann fit, 0.1% DMSO
Structures can show the parent of a compound that is named as a salt.
measured-metric: ΔTm at 10 µM (°C)

The cases that follow already have their ΔTm at 10 µM on record.
CC(C)(C)c1cc(C=C(C#N)C#N)cc(Br)c1O
-1.09
NCC(=O)Nc1ccc(-n2nc(C(F)(F)F)cc2-c2ccc3c(ccc4ccccc43)c2)cc1
-8.69
CN1CC[C@H](c2c(O)cc(O)c3c(=O)cc(-c4ccccc4Cl)oc23)[C@H](O)C1 [Flavopiridol HCl]
-1.16
CCCCCCCCCCCCc1ccc(S(=O)(=O)Nc2nncs2)cc1
-1.79
Cc1ccc(C(=O)Nc2ccc(CN3CCN(C)CC3)c(C(F)(F)F)c2)cc1C#Cc1cnc2cccnn12
-0.505

1. Nc1cc(C(F)(F)F)c(-c2cc(N3CCOCC3)nc(N3CCOCC3)n2)cn1
2. Cc1ccc(S(=O)(=O)/C=C/C#N)cc1
3. N#Cc1c(Oc2ccc(F)c(NC(=O)Cc3cccc(C(F)(F)F)c3)c2)ccc2nc(NC(=O)C3CC3)sc12
4. O=c1cc(CN2CCOCC2)occ1OCCCCCSc1ccnc2cc(C(F)(F)F)ccc12
stdin: Could you please order the items by ΔTm at 10 µM, going from the lowest number to the highest? Sort and list the labels as requested.
stdout: 2, 1, 4, 3
(2: -2.48 °C, 1: -1.39 °C, 4: -0.4 °C, 3: 3.91 °C)

A. COc1cc(Nc2c(C#N)cnc3cc(OCCCN4CCN(C)CC4)c(OC)cc23)c(Cl)cc1Cl [Bosutinib (SKI-606)]
B. Cc1cc(C(C)Nc2ccccc2)c2nc(N3CCOCC3)cc(=O)n2c1 (centres unmarked)
stdin: Could you tell me which of A and B has the lower ΔTm at 10 µM reading? Identify your selection by its label.
stdout: A

====

# target-or-test-system: ZmDRIK1-R187-P492 (Zea mays)
# Construct: kinase domain, R187-P492
# assay-info: biochemical
# stated-conditions: read-out: dTm B, DSF, Boltzmann fit, 0.1% DMSO
measured-metric: ΔTm at 10 µM (°C)

NCC(=O)Nc1ccc(-n2nc(C(F)(F)F)cc2-c2ccc3c(ccc4ccccc43)c2)cc1 [OSU-03012 (AR-12)]
-1.36
CNCc1ccc(-c2cc(-c3nc(-c4ccc(S(=O)(=O)C(C)C)cc4)cnc3N)on2)cc1 [VE-822]
-0.196
COc1cc(OC)c(/C=C/S(=O)(=O)Cc2ccc(OC)c(NCC(=O)O)c2)c(OC)c1 [Rigosertib (ON-01910)]
-0.217

====

# target-or-test-system: ZmDRIK1-K217-S514 (Zea mays, UniProt C0P4K9)
# Construct: kinase domain, K217-S514
# Sequence (C0P4K9 1-514): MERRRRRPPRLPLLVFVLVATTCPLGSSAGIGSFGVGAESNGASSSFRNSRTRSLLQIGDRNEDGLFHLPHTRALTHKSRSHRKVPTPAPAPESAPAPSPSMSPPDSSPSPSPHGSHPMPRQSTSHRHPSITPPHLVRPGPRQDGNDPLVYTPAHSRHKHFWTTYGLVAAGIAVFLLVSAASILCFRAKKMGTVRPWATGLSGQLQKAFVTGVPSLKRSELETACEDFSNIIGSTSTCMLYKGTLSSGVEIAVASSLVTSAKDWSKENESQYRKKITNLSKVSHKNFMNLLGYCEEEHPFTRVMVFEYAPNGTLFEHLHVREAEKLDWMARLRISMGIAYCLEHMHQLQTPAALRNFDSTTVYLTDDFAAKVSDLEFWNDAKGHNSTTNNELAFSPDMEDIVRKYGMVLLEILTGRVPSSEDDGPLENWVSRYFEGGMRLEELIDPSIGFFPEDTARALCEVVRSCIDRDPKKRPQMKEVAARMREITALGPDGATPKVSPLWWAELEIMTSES
# assay-info: biochemical
# stated-conditions: read-out: dTm B, sheet ZmDRIK1-K217-S514;; DSF, Boltzmann fit, 0.1% DMSO
measured-metric: ΔTm at 10 µM (°C)

CNC(=O)Nc1ccc(-c2nc(N3CC4CCC(C3)O4)c3cnn(C4CCC5(CC4)OCCO5)c3n2)cc1 [WYE-125132 (WYE-132)]
-0.412
NCC(=O)Nc1ccc(-n2nc(C(F)(F)F)cc2-c2ccc3c(ccc4ccccc43)c2)cc1 [OSU-03012 (AR-12)]
0.388
Cn1cnc(N)c2ncnc1-2 [3-Methyladenine]
-0.375
O=c1cc(-c2cccc3c2Sc2ccccc2S3)oc(N2CCOCC2)c1 [KU-55933 (ATM Kinase Inhibitor)]
-0.342
CC(C)(C)NS(=O)(=O)c1cncc(-c2cc(F)c3nc(N)nn3c2)c1 [CZC24832]
-0.339

Value source: paper PMC7158045
